meta.source: ChEMBL document CHEMBL1201862

# Tested on: SK-MEL-2
# assay.name: NCI tumour cell line growth inhibition, 48 h
Active and inactive are the calls of the source. Rule as the data show it: active = GI50 up to about 1.1 µM and inactive = higher.
metric: GI50

Example entries begin here.
{"columns": ["compound", "GI50"],
 "data": [
  ["Cc1nnc2sc(-c3ccc([N+](=O)[O-])o3)nn12", "10.4 µM (inactive)"],
  ["CN(C)Cc1cc(C(=O)/C=C/c2ccc([N+](=O)[O-])cc2)cc(CN(C)C)c1O", "11.1 µM (inactive)"],
  ["CCCC/N=C(/c1ccccc1)N1CCOCC1", "> 100 µM (inactive)"],
  ["C/C(=C\\COc1ccc2ccc(=O)oc2c1)C1=CC(=O)C(C)(C)O1 [GEIPARVARIN]", "3.66 µM (inactive)"],
  ["Cc1cc(N(CCC#N)S(=O)(=O)c2ccccc2)ccc1/C=N\\c1cccc(C(=O)O)c1", "> 100 µM (inactive)"]
]}

## Input Recorded GI50 for CSC1=N/C(=C\c2cccs2)C(=O)N1CN1CCOCC1 , please?
## Output 52.4 µM (inactive)

## Input // same read-out, input: CSC1C=C(C(C)C)CCC1(C)SC (stereo unspecified)
## Output 17.7 µM (inactive)

## Input // same read-out, input: S=C(c1c[nH]c2ccccc12)N1CCN(c2ccccc2)CC1
## Output > 100 µM (inactive)

## Input // same read-out, input: ClCCC[Si]12OCCN(CCO1)CCO2
## Output > 100 µM (inactive)

## Input // same read-out, input: CC1(C)CC(=O)c2c(nc3c(ccc4ccccc43)c2-c2ccc(NC(=O)CCCCC(=O)Nc3ccc(-c4c5c(nc6c4ccc4ccccc46)CC(C)(C)CC5=O)cc3)cc2)C1
## Output 33 µM (inactive)

## Input // same read-out, input: CCOC(=O)C(NCc1cccc(C(F)(F)F)c1)(NC(=O)c1ccccc1)C(F)(F)F (stereo unspecified)
## Output 21.4 µM (inactive)
